tested on: M14; test: NCI tumour cell line growth inhibition, 48 h
Activity calls are given as the source filed them. Cut-off read from the data, not from the text of the source: active = GI50 up to about 1.1 µM and inactive = higher.
Listing of entries alongside the reported GI50.

Previously resolved entries follow.
>  <compound>
COC(=O)[C@@H]1[C@@H](c2cccc(Cl)c2)[C@H](C(=O)OC)C2(C[C@@]1(C)O)NCCS2 (stereo not given in full)

>  <GI50>
39.1 µM (inactive)

$$$$
>  <compound>
COc1ccc(CN2CC(C)(C)C2=O)c(OC)c1

>  <GI50>
> 100 µM (inactive)

$$$$
>  <compound>
COc1cc(/C=C2\[C@H]3c4c(c(OC)c(C)c(OC)c4OC)C[C@@H](C(=O)N2Cc2ccccc2)N3C(=O)OC(C)C)c(OC)c(C)c1OC

>  <GI50>
> 100 µM (inactive)

$$$$
>  <compound>
CCc1cc2c(oc3cc(C)ccc32)c(=O)n1C

>  <GI50>
> 10 µM (inactive)

$$$$

Now let's try a different one.
[Q] Fill blank: measured GI50 of the compound COc1ccc(C2=NNC(=O)OC2c2ccccc2)cc1 (stereo not given) is ____.
[A] 50.7 µM (inactive)

---

tested on: SF-539; assay: NCI tumour cell line growth inhibition, 48 h
Activity calls are given as the source filed them. Rule as the data show it: active = GI50 up to about 1.1 µM and inactive = higher.
In this section, each of the molecules is paired with its reported GI50.

Examples from the recorded data:
>  <mol>
COc1c(Sc2ccccc2)cc(Sc2ccccc2)c2cccnc12

>  <GI50>
26.2 µM (inactive)

$$$$
>  <mol>
C/C(=N\NS(=O)(=O)c1ccccc1)c1ccc(Cl)c(Cl)c1

>  <GI50>
43 µM (inactive)

$$$$
>  <mol>
[O-][n+]1c(-c2ccccc2)c2nc3ccccc3nc2c2ccccc21

>  <GI50>
> 100 µM (inactive)

$$$$
>  <mol>
CC(=O)Nc1ccc2c(c1)[nH]c(=O)c1cc(Cl)ccc12

>  <GI50>
40.1 µM (inactive)

$$$$
>  <mol>
c1ccc2c(c1)c1c(n2CCOCCN2CCOCC2)CCCC1

>  <GI50>
86.1 µM (inactive)

$$$$

Could you now consider this next molecule?
[Q] Name the reported GI50 value associated with the molecule "CC(=O)c1ccccc1NP(=O)(c1ccccc1)c1ccccc1"
[A] 70.3 µM (inactive)

---

tested on: KM12; test: NCI tumour cell line growth inhibition, 48 h
The source made the active and inactive calls. Rule as the data show it: active = GI50 up to about 1.1 µM and inactive = higher.
GI50 overview

[Q] What measured GI50 goes with "O=c1c(-c2ccccc2)c(SCCN2CCOCC2)n(-c2ccccc2)c(=S)n1-c1ccccc1" ?
[A] > 100 µM (inactive)

[Q] Item "Clc1cc(Cl)c2cc3cccc[n+]3cc2c1Cl" has what recorded GI50?
[A] > 10 µM (inactive)

[Q] Look at this molecule and give its reported GI50. "COc1ccc(/C=N/NS(=O)(=O)c2ccc(/C=C3\NC(=O)N(C)C3=O)cc2)cc1"
[A] > 100 µM (inactive)

[Q] Query: GI50; subject: "COc1c(O)cc2c3c(ccnc13)NC=C2"
[A] > 100 µM (inactive)

[Q] Please report the recorded GI50 for "CCOC(=O)/C(=C/c1ccc(C(=O)OC)cc1)N(CC)CC" .
[A] 41.3 µM (inactive)

[Q] What value of measured GI50 is listed for CC(=O)OCC1(C)C(O)CCC2(C)C1CCC1CC3CC12CCC3(O)CO (stereo unspecified) ?
[A] > 100 µM (inactive)

---

system: NCI/ADR-RES; assay: NCI tumour cell line growth inhibition, 48 h
Calls of active or inactive are those of the source. Rule as the data show it: active = GI50 up to about 1.1 µM and inactive = higher.
observation_type: GI50

Use these answered entries as a reference point.
>  <compound>
CC1(C)OC2OC(C(COS(=O)(=O)C(F)(F)F)N=[N+]=[N-])C(OC(=O)c3ccccc3)C2O1 (stereo not drawn)

>  <GI50>
> 100 µM (inactive)

$$$$
>  <compound>
Cc1ccc(-c2cnc(NC3OC(COC(=O)c4ccccc4)C(OC(=O)c4ccccc4)C(OC(=O)c4ccccc4)C3OC(=O)c3ccccc3)s2)cc1 (stereo not drawn)

>  <GI50>
> 100 µM (inactive)

$$$$
>  <compound>
Cc1cccc(Nc2cnc(N)nc2N)c1

>  <GI50>
> 100 µM (inactive)

$$$$
>  <compound>
CC[C@H](C)[C@H]1NC(=O)[C@@H](NC(=O)[C@@H](CC(C)C)N(C)C(=O)C2CCCN2C(=O)[C@H](C)O)[C@@H](C)OC(=O)[C@@H]2Cc3ccccc3CN2C(=O)[C@@H]2CCCN2C(=O)[C@H](CC(C)C)NC(=O)[C@@H](C)C(=O)[C@H](C(C)C)OC(=O)C[C@@H]1O (stereo partly drawn)

>  <GI50>
> 100 µM (inactive)

$$$$
>  <compound>
COc1cccc(C2c3cc4c(cc3OC(C)(N3CCCC3)C2C)OCO4)c1O (stereo not drawn)

>  <GI50>
2.72 µM (inactive)

$$$$
>  <compound>
Cc1ccc(-c2ccc(Nc3c4ccccc4nc4ccccc34)cc2)cn1

>  <GI50>
8.89 µM (inactive)

$$$$
>  <compound>
Clc1cc(Cl)c2cc3cccc[n+]3cc2c1Cl

>  <GI50>
18.3 µM (inactive)

$$$$

[Q] What measured GI50 goes with CC(C)NCCC(O)c1cc2ccccc2o1 (stereo not drawn) ?
[A] > 100 µM (inactive)

---

system: NCI-H23; experiment: NCI tumour cell line growth inhibition, 48 h
Calls of active or inactive are those of the source. No stated cut-off is given here; in the data, active = GI50 up to about 1.1 µM and inactive = higher.
observation_type: GI50

>  <molecule>
CCCC1C2=C(C(=O)OC2=O)C2C(CC)CC3=C(C(=O)OC3=O)C12 (centres undefined)

>  <observation_type>
GI50

>  <measured_result>
> 100 µM (inactive)

$$$$
>  <molecule>
CCCCN(CCCC)CC(C(=O)Nc1ccc([N+](=O)[O-])cc1[N+](=O)[O-])/C(C)=N\NC(=O)C[N+](C)(C)C (centres undefined)

>  <observation_type>
GI50

>  <measured_result>
> 100 µM (inactive)

$$$$
>  <molecule>
O=C(OCCN=C1c2ccccc2CCc2ccccc21)c1cc([N+](=O)[O-])cc([N+](=O)[O-])c1

>  <observation_type>
GI50

>  <measured_result>
> 31.6 µM (inactive)

$$$$

Continue with the next molecule.
[Q] I am curious: what GI50 value has been reported for "CCCCC(=O)Oc1ccc2c(C)cc(=O)oc2c1" ?
[A] > 100 µM (inactive)

---

test system: SK-OV-3; assay: NCI tumour cell line growth inhibition, 48 h
Calls of active or inactive are those of the source. Rule as the data show it: active = GI50 up to about 1.1 µM and inactive = higher.
Log the outcome using a class from active, inactive

Please review the entries below; each comes with its answer.
>  <compound>
COc1cc(/C=N/N=C(\N)NO)cc(Cl)c1O

>  <label_class>
inactive

$$$$
>  <compound>
CCC1c2[nH]c3ccccc3c2C[C@H]2C(=O)NC(Cc3ccccc3)C(=O)N12 (some centres not stated)

>  <label_class>
inactive

$$$$
>  <compound>
Cc1ccccc1-n1c(=O)sc2c(=O)n(-c3ccccc3)c(=S)[nH]c21

>  <label_class>
inactive

$$$$
>  <compound>
c1cc2cc3c4c5c(cc6ccc7cc8cc9c%10c8c8c7c6c5c8c5c%10c(c1C9N1CCOCCOCCOCCOCCOCC1)c2c45)C3 (configuration not stated)

>  <label_class>
inactive

$$$$
>  <compound>
COC(=O)CCC(NC(=S)N/N=C(\C)c1ccco1)C(=O)OC (configuration not stated)

>  <label_class>
inactive

$$$$

[Q] Given "CN(C)CC[N+]1=Nc2cccc3cccc(c23)N1" , state the outcome it received in this test.
[A] inactive

[Q] Assay outcome for CCCC(=O)Nc1cc(/C=C/C(=O)N2CC(CCl)c3ccc(N)cc32)n(C)c1 (configuration not stated) : what was it?
[A] active

---

test system: CCRF-CEM; assay: NCI tumour cell line growth inhibition, 48 h
The source made the active and inactive calls. Cut-off read from the data, not from the text of the source: active = GI50 up to about 1.1 µM and inactive = higher.
Listed compounds paired with reported GI50

>  <compound>
Cc1nnc2n1-c1ccccc1-c1[nH]c3ccccc3c1C2

>  <GI50>
53.8 µM (inactive)

$$$$
>  <compound>
CN(C)c1ccc(/C=C/C(=O)CC(=O)/C=C/c2ccc(N(C)C)cc2)cc1

>  <GI50>
> 100 µM (inactive)

$$$$
>  <compound>
O=C(n1c(=O)n(-c2ccc(Cl)cc2)c(=O)n1C(=O)C(Cl)(Cl)Cl)C(Cl)(Cl)Cl

>  <GI50>
> 100 µM (inactive)

$$$$
>  <compound>
COc1ccc(C2CC(c3cc4c(C)c(C(=O)c5ccccc5)oc4cc3O)=Nc3ccccc3S2)cc1OC (stereo not given)

>  <GI50>
70.8 µM (inactive)

$$$$

[Q] Entry CC(=O)OCC1(C)C(O)CCC2(C)C1CCC1CC3CC12CCC3(O)CO (stereo not given) has what GI50?
[A] 9.77 µM (inactive)

---

tested on: OVCAR-5; assay: NCI tumour cell line growth inhibition, 48 h
Activity calls are given as the source filed them. Rule as the data show it: active = GI50 up to about 1.1 µM and inactive = higher.
Choose the fitting class; nothing outside True for active, False for inactive is accepted.

Use these answered entries as a reference point.
>  <compound>
CC(=O)Oc1cccc2c1C(=O)CCCC2

>  <label_class>
False

$$$$
>  <compound>
Cc1c(C(=O)c2ccc(N)c3ccccc23)c2ccccc2n1CCN1CCOCC1

>  <label_class>
False

$$$$
>  <compound>
CCOC(=O)CCC(NC(=O)c1ccc(N2CCN(c3c(C)nc(N)nc3N)CC2)cc1)C(=O)OCC (centres undefined)

>  <label_class>
False

$$$$
>  <compound>
OCCOCn1nncc1Cn1ncc2c(O)ncnc21

>  <label_class>
False

$$$$

[Q] Look up the recorded call for "COc1ccc2cc(CNCCCN3CCN(CCCNCc4ccc5cc(OC)ccc5c4)CC3)ccc2c1" in this test.
[A] False

[Q] Short answer needed: outcome of this test for O=C1OC(O)C(Oc2ccc(Cl)cc2)=C1Cl (centres undefined) ?
[A] False

[Q] Recorded test call requested for CC1=CC(O)(c2ccccc2)C(N2CCOCC2)N1O (centres undefined)
[A] False

[Q] Which outcome was entered for the compound "COc1cc(-c2cc(=O)c3c(OC)c(OC)c(OC)c(OC)c3o2)c(OC)c(OC)c1OC" in this test?
[A] False

[Q] Status in this test for "O=C1c2ccc(O)c(O)c2C(=O)c2c(O)ccc(O)c21" ?
[A] False

[Q] Hi team, can someone confirm the assay call for NC(CC(O)(c1ccccc1)c1ccccc1)c1ccccc1S (centres undefined) ?
[A] False
